# credit: patent US11116760B2

# assay_target: α4β7 integrin (Homo sapiens (Human), UniProt P13612+P26010)
# Sequence (P13612 34-1032): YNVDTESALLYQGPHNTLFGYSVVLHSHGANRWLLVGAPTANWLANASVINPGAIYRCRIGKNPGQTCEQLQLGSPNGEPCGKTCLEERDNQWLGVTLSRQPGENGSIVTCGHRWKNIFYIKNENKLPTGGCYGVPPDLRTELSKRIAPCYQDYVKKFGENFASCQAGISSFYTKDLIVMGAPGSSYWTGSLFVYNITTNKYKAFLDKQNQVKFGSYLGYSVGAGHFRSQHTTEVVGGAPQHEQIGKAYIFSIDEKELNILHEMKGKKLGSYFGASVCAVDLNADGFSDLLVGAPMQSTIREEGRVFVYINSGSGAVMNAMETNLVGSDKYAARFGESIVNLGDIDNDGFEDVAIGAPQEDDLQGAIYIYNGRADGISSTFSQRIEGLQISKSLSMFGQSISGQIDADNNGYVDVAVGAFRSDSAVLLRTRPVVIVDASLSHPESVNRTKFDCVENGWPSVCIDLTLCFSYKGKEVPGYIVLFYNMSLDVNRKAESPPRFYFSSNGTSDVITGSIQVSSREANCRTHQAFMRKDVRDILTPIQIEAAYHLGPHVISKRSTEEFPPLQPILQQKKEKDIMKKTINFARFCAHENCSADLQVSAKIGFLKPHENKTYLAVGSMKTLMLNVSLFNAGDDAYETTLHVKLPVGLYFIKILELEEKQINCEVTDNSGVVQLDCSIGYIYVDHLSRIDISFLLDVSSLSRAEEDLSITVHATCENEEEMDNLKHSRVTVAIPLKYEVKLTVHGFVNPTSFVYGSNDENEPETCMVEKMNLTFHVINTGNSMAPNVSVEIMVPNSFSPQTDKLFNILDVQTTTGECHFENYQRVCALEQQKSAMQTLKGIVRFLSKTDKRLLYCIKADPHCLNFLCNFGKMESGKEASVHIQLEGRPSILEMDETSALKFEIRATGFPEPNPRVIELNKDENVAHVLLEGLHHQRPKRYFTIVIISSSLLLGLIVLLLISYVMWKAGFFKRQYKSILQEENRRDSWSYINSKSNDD
# Sequence (P26010 20-798): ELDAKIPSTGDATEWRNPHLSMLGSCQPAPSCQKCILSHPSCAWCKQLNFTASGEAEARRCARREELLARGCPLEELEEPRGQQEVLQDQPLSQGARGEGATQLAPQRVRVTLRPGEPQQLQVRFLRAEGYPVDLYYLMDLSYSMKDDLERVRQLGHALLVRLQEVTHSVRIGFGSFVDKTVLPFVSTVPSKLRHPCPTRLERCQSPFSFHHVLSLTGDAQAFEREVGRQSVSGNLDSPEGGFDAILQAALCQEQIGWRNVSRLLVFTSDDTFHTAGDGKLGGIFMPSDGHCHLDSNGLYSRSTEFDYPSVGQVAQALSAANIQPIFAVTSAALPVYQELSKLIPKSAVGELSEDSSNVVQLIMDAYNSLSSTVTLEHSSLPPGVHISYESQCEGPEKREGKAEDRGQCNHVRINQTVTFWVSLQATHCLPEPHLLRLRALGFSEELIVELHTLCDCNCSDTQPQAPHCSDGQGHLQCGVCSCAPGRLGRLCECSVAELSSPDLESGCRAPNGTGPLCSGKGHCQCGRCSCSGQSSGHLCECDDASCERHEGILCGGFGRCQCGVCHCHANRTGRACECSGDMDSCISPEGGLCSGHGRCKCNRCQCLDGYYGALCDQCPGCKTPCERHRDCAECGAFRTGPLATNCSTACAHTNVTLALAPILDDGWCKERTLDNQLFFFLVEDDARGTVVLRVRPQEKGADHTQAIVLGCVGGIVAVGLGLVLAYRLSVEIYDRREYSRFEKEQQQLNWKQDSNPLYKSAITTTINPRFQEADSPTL
# assay_summary: α4β7 Integrin Cell Capture Assay
# Assay type: cell-based
# test_settings: RPMI8866 cells captured on MadCAM-1 extracellular domain-coated plate
attribute_measured: pEC50
Scale for pEC50: -log10 of concentration given in mol/L; no unit attached.

*Q* Supply reported pEC50 belonging to this compound: "Cc1cc(C(F)(F)F)c(-c2ccc(C[C@H](NC(=O)c3c(F)cc(N4CCCOCC4)cc3F)C(=O)O)c3cccnc23)c(=O)n1C"
*A* 9.39

---
*Q* Supply reported pEC50 belonging to this compound: "Cn1c(=O)n(-c2ccc(C[C@H](NC(=O)c3c(F)cc(N4CCOC[C@@H]4C(F)(F)F)cc3F)C(=O)O)c3cccnc23)c(=O)c2cnccc21"
*A* 9.71

*Q* Supply reported pEC50 belonging to this compound: "Cc1cc(C(F)(F)F)c(-c2ccc(C[C@H](NC(=O)c3c(F)cc(N4C[C@H]5C[C@@H]4CO5)cc3F)C(=O)O)c3cccnc23)c(=O)n1C"
*A* 9.53

====

# assay_target: α4β7 integrin (Homo sapiens (Human), UniProt P13612+P26010)
# assay_summary: α4β7 Integrin Cell Capture Assay
# Assay type: cell-based
# test_settings: Table 2; capture of α4β7 expressing RPM18866 cells on MadCAM-1 extracellular domain-coated plate
Entries and their EC50
Form entry: value (nM) — number only.

*Q* Supply reported EC50 belonging to this compound: Cc1cc(C(F)(F)F)c(-c2ccc(C[C@H](NC(=O)c3c(F)cc(N4C[C@H](C)OC[C@H]4C)cc3F)C(=O)O)c3cccnc23)c(=O)n1C [Example 243]
*A* 2.9

*Q* Supply reported EC50 belonging to this compound: N#Cc1ccc(-c2ccc(C[C@H](NC(=O)c3c(F)cc(NC4(C(F)(F)F)CC4)cc3F)C(=O)O)c3cccnc23)c(Cl)c1 [Example 229]
*A* 60.5

*Q* Supply reported EC50 belonging to this compound: CC[C@@H](Nc1cc(F)c(C(=O)N[C@@H](Cc2ccc(-c3ncc(C)cc3N(C)C)c3ncccc23)C(=O)O)c(F)c1)C(F)(F)F [Example 313]
*A* 13.3

*Q* Supply reported EC50 belonging to this compound: N#Cc1ccc(-c2ccc(C[C@H](NC(=O)c3c(Cl)cc4[nH]c(C5CC5)cc4c3Cl)C(=O)O)c3cccnc23)c(Cl)c1 [Example 225]
*A* 53.7

*Q* Supply reported EC50 belonging to this compound: Cc1ccnc(-c2ccc(C[C@H](NC(=O)c3c(F)cc(N4CCOC[C@@H]4C(F)(F)F)cc3F)C(=O)O)c3cccnc23)c1N(C)C [Example 212]
*A* 1.9

*Q* Supply reported EC50 belonging to this compound: Cc1cc(C(F)(F)F)c(-c2ccc(C[C@H](NC(=O)c3c(F)cc(N4C[C@H](C)OC[C@@H]4C(F)(F)F)cc3F)C(=O)O)c3cccnc23)c(=O)n1C [Example 198]
*A* 1.4

*Q* Supply reported EC50 belonging to this compound: N#Cc1ccc(-c2ccc(C[C@H](NC(=O)c3c(F)cc(O[C@H](c4ccccc4)C(F)(F)F)cc3F)C(=O)O)c3cccnc23)c(Cl)c1 [Example 175]
*A* 97.1

*Q* Supply reported EC50 belonging to this compound: Cc1cc(C)n(C)c(=O)c1-c1ccc(C[C@H](NC(=O)c2c(F)cc(N3CCCC[C@@H]3C(F)(F)F)cc2F)C(=O)O)c2cccnc12 [Example 202]
*A* 1.5

*Q* Supply reported EC50 belonging to this compound: O=C(N[C@@H](Cc1ccc(-c2cc(F)c(F)cc2OC2CCC2)c2ncccc12)C(=O)O)c1c(F)cccc1F [Example 177]
*A* 28

*Q* Supply reported EC50 belonging to this compound: CC[C@@H](Nc1cc(F)c(C(=O)N[C@@H](Cc2ccc(-c3ccc(F)c4cccnc34)c3ncccc23)C(=O)O)c(F)c1)C(F)(F)F [Example 264]
*A* 4.1

---
*Q* Supply reported EC50 belonging to this compound: Cc1ccc(C(F)(F)F)c(-c2ccc(C[C@H](NC(=O)c3c(F)cc(N4CCOC[C@@H]4C(F)(F)F)cc3F)C(=O)O)c3cccnc23)n1 [Example 270]
*A* 4.4

*Q* Supply reported EC50 belonging to this compound: CC[C@@H](Nc1cc(F)c(C(=O)N[C@@H](Cc2ccc(-c3c(C(F)(F)F)cc(C)n(C)c3=O)c3nc(C)ccc23)C(=O)O)c(F)c1)C(F)(F)F [Example 183]
*A* 0.9

====

# assay_target: α4β7 integrin (Homo sapiens (Human), UniProt P13612+P26010)
# assay_summary: α4β7 Integrin Cell Capture Assay
# Assay type: cell-based
# test_settings: RPMI8866 cells captured on MadCAM-1 extracellular domain-coated plate
Entries and their EC50
Form entry: value (nM) — number only.

*Q* Supply reported EC50 belonging to this compound: "Cc1cc(C(F)(F)F)c(-c2ccc(C[C@H](NC(=O)c3c(F)cc(N4CCO[C@@H](C(F)(F)F)C4)cc3F)C(=O)O)c3cccnc23)c(=O)n1C"
*A* 0.271

---
*Q* Supply reported EC50 belonging to this compound: "Cc1cc(N2CCOC[C@@H]2C(F)(F)F)cc(F)c1C(=O)N[C@@H](Cc1ccc(-c2cc3cnccc3n(C)c2=O)c2ncccc12)C(=O)O"
*A* 0.103

*Q* Supply reported EC50 belonging to this compound: "Cc1cc(C(F)(F)F)c(-c2ccc(C[C@H](NC(=O)c3c(F)cc(N4CCOC5(COC5)C4)cc3F)C(=O)O)c3cccnc23)c(=O)n1C"
*A* 2.07

*Q* Supply reported EC50 belonging to this compound: "Cc1cc(N2CCOC[C@@H]2C(F)(F)F)cc(F)c1C(=O)N[C@@H](Cc1ccc(-n2c(=O)c3c(cnn3C)n(C)c2=O)c2ncccc12)C(=O)O"
*A* 0.529

*Q* Supply reported EC50 belonging to this compound: "Cc1cc(N2CCOC[C@@H]2C(F)(F)F)cc(F)c1C(=O)N[C@@H](Cc1ccc(-c2ccc(C)n(C)c2=O)c2ncccc12)C(=O)O"
*A* 0.161

====

# assay_target: α4β7 integrin (Homo sapiens (Human), UniProt P13612+P26010)
# assay_summary: α4β7 Integrin Cell Capture Assay
# Type: cell-based
# test_settings: Table 2; capture of α4β7 expressing RPM18866 cells on MadCAM-1 extracellular domain-coated plate
Entries and their EC50
Write down the value, and be sure its unit follows.

*Q* Supply reported EC50 belonging to this compound: "CC[C@@H](Nc1cc(F)c(C(=O)N[C@@H](Cc2ccc(-c3nc(C)cn(C)c3=O)c3ncccc23)C(=O)O)c(F)c1)C(F)(F)F"
*A* 1.9 nM

*Q* Supply reported EC50 belonging to this compound: "CC[C@@H](Nc1cc(F)c(C(=O)N[C@@H](Cc2ccc(-c3nc(C)ccc3C(F)(F)F)c3ncccc23)C(=O)O)c(F)c1)C(F)(F)F"
*A* 6.5 nM

*Q* Supply reported EC50 belonging to this compound: Cc1cc(C(F)(F)F)c(-c2ccc(C[C@H](NC(=O)c3c(F)cc(N4CC(C)OCC4C(F)(F)F)cc3F)C(=O)O)c3cccnc23)c(=O)n1C (stereo partly drawn)
*A* 0.5 nM

*Q* Supply reported EC50 belonging to this compound: "Cc1cc(C(F)(F)F)c(-c2ccc(C[C@H](NC(=O)c3c(F)cccc3F)C(=O)O)c3cccnc23)c(=O)n1C"
*A* 2.1 nM

---
*Q* Supply reported EC50 belonging to this compound: "Cc1c(Cl)cn(C)c(=O)c1-c1ccc(C[C@H](NC(=O)c2c(F)cc(N3CCOC[C@@H]3C(F)(F)F)cc2F)C(=O)O)c2cccnc12"
*A* 0.4 nM

*Q* Supply reported EC50 belonging to this compound: "Cc1cc(C(F)(F)F)c(-c2ccc(C[C@H](NC(=O)c3c(F)cc(N4CCOCC4)cc3F)C(=O)O)c3cccnc23)c(=O)n1C"
*A* 2 nM

====

# assay_target: α4β7 integrin (Homo sapiens (Human), UniProt P13612+P26010)
# assay_summary: α4β7 Integrin Cell Capture Assay
# Format: cell-based
# test_settings: Table 2; capture of α4β7 expressing RPM18866 cells on MadCAM-1 extracellular domain-coated plate
// NB: equality with 8 nM counts as Not satisfied; only EC50 strictly below is Satisfied

*Q* Answer whether the molecule CC[C@@H](Nc1cc(F)c(C(=O)N[C@@H](Cc2ccc(-c3c(C)c4cc(F)ccc4n(C)c3=O)c3ncccc23)C(=O)O)c(F)c1)C(F)(F)F (atropisomer, axis not shown) has EC50 strictly less than 8 nM
*A* Satisfied

*Q* Answer whether the molecule "N#Cc1ccc(-c2ccc(C[C@H](NC(=O)c3c(F)cc(NC4(C(F)(F)F)CCC4)cc3F)C(=O)O)c3cccnc23)c(Cl)c1" has EC50 strictly less than 8 nM
*A* Not satisfied

*Q* Answer whether the molecule "COc1c(-c2ccc(C[C@H](NC(=O)c3c(F)cc(N4CCOC[C@H]4C(F)(F)F)cc3F)C(=O)O)c3cccnc23)c(=O)n(C)c2ccccc12" has EC50 strictly less than 8 nM
*A* Satisfied

---
*Q* Answer whether the molecule "CCOc1ccnc(-c2ccc(C[C@H](NC(=O)c3c(F)cc(N4CCOC[C@@H]4C(F)(F)F)cc3F)C(=O)O)c3cccnc23)c1C(F)(F)F" has EC50 strictly less than 8 nM
*A* Satisfied

*Q* Answer whether the molecule "Cc1cc(C(F)(F)F)c(-c2ccc(C[C@H](NC(=O)c3c(F)cc(N4C[C@H](C)OC[C@@H]4C)cc3F)C(=O)O)c3cccnc23)c(=O)n1C" has EC50 strictly less than 8 nM
*A* Satisfied

*Q* Answer whether the molecule "C[C@@H](NC(=O)c1cc(F)c(C(=O)N[C@@H](Cc2ccc(-c3ccc(C#N)cc3Cl)c3ncccc23)C(=O)O)c(F)c1)C(F)(F)F" has EC50 strictly less than 8 nM
*A* Not satisfied

*Q* Answer whether the molecule "Cc1cc(C(F)(F)F)c(-c2ccc(C[C@H](NC(=O)c3c(F)cc(N4CCOC[C@H]4CC(F)(F)F)cc3F)C(=O)O)c3cccnc23)c(=O)n1C" has EC50 strictly less than 8 nM
*A* Satisfied

*Q* Answer whether the molecule "Cc1cc(C(F)(F)F)c(-c2ccc(C[C@H](NC(=O)c3c(F)cc(N4CCOC[C@@H]4C(F)(F)F)cc3F)C(=O)O)c3cc(N(C)C)cnc23)c(=O)n1C" has EC50 strictly less than 8 nM
*A* Satisfied

*Q* Answer whether the molecule "CCCN(c1cc(F)c(C(=O)N[C@@H](Cc2ccc(-c3c(C(F)(F)F)cc(C)n(C)c3=O)c3ncccc23)C(=O)O)c(F)c1)[C@H](CC)C(F)(F)F" has EC50 strictly less than 8 nM
*A* Satisfied

*Q* Answer whether the molecule "Cc1cnc(-c2ccc(C[C@H](NC(=O)c3c(F)cc(N4CCOC[C@@H]4C(F)(F)F)cc3F)C(=O)O)c3cccnc23)c(C(F)(F)F)c1" has EC50 strictly less than 8 nM
*A* Satisfied

*Q* Answer whether the molecule "C[C@H](NC(=O)c1cc(F)c(C(=O)N[C@@H](Cc2ccc(-c3ccc(C#N)cc3Cl)c3ncccc23)C(=O)O)c(F)c1)c1ccccc1" has EC50 strictly less than 8 nM
*A* Not satisfied
